All figures here come from PubChem BioAssay (NCATS).

- System: CP185
- method_notes: qHTS profiling for inhibitors of Plasmodium falciparum proliferation (AID 504749); note: nearly all actives have a fitted effect of over 60% in size
- condition_description: P. falciparum in erythrocytes, SYBR Green DNA, 72 h; series mostly up to 28.7 µM
- Description: NIH National Institute of Allergy and Infectious Diseases [NIAID] NIH Chemical Genomics Center [NCGC] […] Because mature erythrocytes lack DNA, only Plasmodium-derived DNA is detected. NCGC Assay Protocol Summary: The SYBR Green viability assay was adapted from a method described previously (Plouffe et al., 2008). […] The following morning, fluorescence intensity at 485(14) nm excitation and 535(25) nm emission wavelengths was measured on an EnVision (Perkin Elmer) plate reader. […]
Records with an inconclusive call do not appear. Calls of active or inactive are those of the source. Calls come from the whole dose curve; as a rule, active = well fitted inhibition curve with a large enough effect; inconclusive = small, poorly fitted or top-dose-only effect; inactive = flat fitted curve, though single readings scatter.
Possible outcomes: label 1 = active, label 0 = inactive

1) C/C=C1\C2C=C(C)CC1(N)c1ccc(=O)[nH]c1C2 (configuration not stated) : label 0
2) COC(=O)[C@@H]1[C@@H]2C[C@H]3c4[nH]c5ccccc5c4CCN3C[C@@H]2CC[C@@H]1O : label 0
3) CC(=O)[C@H]1CC[C@H]2C3CC=C4C[C@@H](O)CC[C@]4(C)C3CC[C@]12C (some centres not stated) : label 0
4) CC(C)(O)c1ccccc1CC[C@H](SCC1(CC(=O)O)CC1)c1cccc(/C=C/c2ccc3ccc(Cl)cc3n2)c1 : label 0
5) CC(C)C[C@@H](NC(=O)[C@H](Cc1ccccc1)NC(=O)c1cnccn1)B(O)O : label 1
6) C[C@@H](C(=O)O)c1ccc(-c2ccccc2)c(F)c1 : label 0
7) O=C(CC1NCCC[C@H]1O)Cn1cnc2cc(Br)c(Cl)cc2c1=O (some centres not stated) : label 1

====

- method_notes: Validation screen for small molecules that induce DNA re-replication in MCF 10A normal breast cells (AID 463097); note: nearly all actives have a fitted effect of over 60% in size
- condition_description: MCF 10A cells, DNA re-replication phenotype imaging; series mostly up to 46.1 µM
Records with an inconclusive call do not appear. Active and inactive are the calls of the source. The call rests on the fitted dose curve; in most records, active means well fitted activation curve with a large enough effect; inconclusive means small, poorly fitted or top-dose-only effect; inactive means flat fitted curve, though single readings scatter.
Possible outcomes: YES = active, NO = inactive

1) C[N+](C)(C)CCC(=O)c1cccc2ccccc12 : YES
2) Oc1cc2c(c(Cl)c1O)CCNCC2c1ccccc1 (centres undefined) : NO
3) O=C(Nc1cc(C(=O)Nc2ccc(S(=O)(=O)O)cc2S(=O)(=O)O)cc(C(=O)Nc2ccc(S(=O)(=O)O)cc2S(=O)(=O)O)c1)Nc1cc(C(=O)Nc2ccc(S(=O)(=O)O)cc2S(=O)(=O)O)cc(C(=O)Nc2ccc(S(=O)(=O)O)cc2S(=O)(=O)O)c1 : NO
4) Nc1c(S(=O)(=O)O)cc(Nc2ccc(Nc3nc(Cl)nc(Nc4ccc(S(=O)(=O)O)cc4)n3)c(S(=O)(=O)O)c2)c2c1C(=O)c1ccccc1C2=O : NO

====

- method_notes: AP1 Signaling Pathway (AID 357);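 note: ME-180 reporter cells stimulated with EGF at its EC50 level; % is set by controls: 0 for no effect and ±100 for the full control effect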
- condition_description: ME-180 (cervical carcinoma) AP-1-bla reporter, EGF-induced, beta-lactamase ratio, 5 h; at 17.2 µM (top of the series)
Results filed as inconclusive are left out.
reported_endpoint: activity change, negative = inhibition (%)

1. COc1ccc(CCN(C)CCC[C@@](C#N)(c2ccc(OC)c(OC)c2)C(C)C)cc1OC : 2.2
2. CC(C)NC[C@@H](O)COc1ccc(CCOCC2CC2)cc1 : -7.61
3. CC[C@@H]1O[C@]2(C=C[C@@H]1C)C[C@H]1C[C@H](CC=C(C)[C@@H](O[C@@H]3C[C@H](OC)[C@H](O[C@@H]4C[C@H](OC)[C@H](O)[C@H](C)O4)[C@H](C)O3)[C@@H](C)C=CC=C3CO[C@@H]4[C@@H](O)C(C)=C[C@@H](C(=O)O1)[C@]34O)O2 : 6.2
4. O=C1N=C(O)CN1/N=C\c1ccc(-c2ccc([N+](=O)[O-])cc2)o1 : -13.8
5. O=C1CC[C@H](N2C(=O)c3ccccc3C2=O)C(=O)N1 : 0.427
6. C[C@@H](CCc1ccc(O)cc1)NCCc1ccc(O)c(O)c1 : 1.11
7. CCCCC[C@H](O)/C=C/[C@@H]1[C@@H](CCCCCCC(=O)O)[C@@H](O)C[C@H]1O : 8.11
8. COc1cc(CNC(=O)CCCC/C=C\C(C)C)ccc1O : 7.68
9. CC(C)NC[C@@H](O)COc1cccc2[nH]ccc12 : 5.19
10. O=C(NCCNC[C@@H](O)COc1ccc(O)cc1)N1CCOCC1 : -7.17
11. CCCCCC#CCC#CCC#CCC#CCCCC(=O)O : -11.4
